tested on: EKVX NSCLC
Please answer using one outcome listed in YES for active, NO for inactive

Here are 6 compounds together with their reported answers.
>>> print(df.to_string())
                                   compound  classification
0  CC[C@@]1(O)C(=O)NCc2c1cc1n(c2=O)Cc2cc3c(N)cccc3nc2-1              NO
1  COCCOC(=O)NC(=O)Nc1ccc(/C(=N/O)c2ccc(Cl)cc2)cc1             YES
2  CN(C)CCCN1c2nc3ccccc3cc2Sc2cc3ccccc3nc21              NO
3  O=S(=O)(NCC1CCC(CNc2ccc(Cl)cc2)CC1)c1ccc(-c2ccccc2)cc1 (configuration not stated)              NO
4  CC(=O)O[C@H]1CC[C@@]2(C)C(=CC[C@H]3[C@@H]4C/C(=C\c5cccc(OCCN6CCOCC6)c5)[C@H](OC(C)=O)[C@@]4(C)CC[C@@H]32)C1              NO
5                       Nc1nnc2cc(Cl)ccc2n1              NO

Now, please, on to the next compound.
Inquiry: Recorded test outcome, item O=[N+]([O-])c1ccc(N/N=C/c2c(O)ccc3ccccc23)nc1
Reply text: NO
